pIC50: −log10 of the molar value.
Let's look at some pIC50 data for UniProt Q93009 that I collected from the literature.

# lookup: CCc1nnc2nc3c(nn12)-c1cc(OC)c(OC)cc1C3=O on UniProt Q93009, pIC50 = 5.98

UniProt Q93009 pIC50 of O=C(C1Cc2cc(Cl)cc(-c3ccnc4[nH]ccc34)c2O1)N1CCN(c2ccccn2)CC1 (centres unmarked) is 4.52 to 5.00

Case N#CN1Cc2[nH]nc(-c3ccc(F)cc3)c2C1 , UniProt Q93009, pIC50 recorded as > 5.00

Per the reported UniProt Q93009 data, N[C@@H](Cc1ccccc1)C(=O)N1CCC(O)(Cn2cnc3cc(Cl)ccc3c2=O)CC1 has pIC50 of < 5.00

Reported UniProt Q93009 pIC50 for item O=C(N[C@@H](Cc1ccccc1)C(=O)N1CCC(O)(Cn2cnc3cc(Cl)ccc3c2=O)CC1)c1ccc2c(Cl)c3c(nc2c1)CCCC3 was 5.00 to 6.00

Per the reported UniProt Q93009 data, O=C([C@H]1Cc2cc(Cl)cc(-c3ccnc4sccc34)c2O1)N1CCNCC1 has pIC50 of 5.00 to 6.00

O=C([C@H]1Cc2cc(Cl)cc(-c3ccnc4cc(CO)sc34)c2O1)N1CCC(N2CCCCC2)CC1 on UniProt Q93009 gives pIC50 = > 6.00

Recorded pIC50 for CN1CCC(=O)N(Cc2cc3ncnc(-c4cc(Cl)cc(Cl)c4CC4CNCC(C)(C)O4)c3s2)C1=O (centres unmarked) on UniProt Q93009 was > 8.00

---

Here is a set of molecules with reported IC50 for Ubiquitin carboxyl-terminal hydrolase 7 (Homo sapiens, UniProt Q93009), compiled from the literature.

So the reported IC50 for Cc1cc(Cl)cc(-c2ccnc3cc(CN4C(=O)C5C(C4=O)C5(C)C)sc23)c1CN1[C@@H](C)CNC[C@@H]1C (stereo partly shown) , on Ubiquitin carboxyl-terminal hydrolase 7 (Homo sapiens, UniProt Q93009), turned out to be < 10 nM

Short answer on Ubiquitin carboxyl-terminal hydrolase 7 (Homo sapiens, UniProt Q93009) for Clc1cc2c(c(-c3ccnc4cc(-c5cc[nH]n5)sc34)c1)O[C@@H](c1onc3c1CNCC3)C2 , IC50: < 1000 nM

IC50 of Cc1cc(Cl)cc(-c2ncnc3cc(CN4C(=O)CC(C)NC4=O)sc23)c1C[C@@H]1CNCCO1 (stereo partly shown) , assay on Ubiquitin carboxyl-terminal hydrolase 7 (Homo sapiens, UniProt Q93009), is < 10 nM

The recorded IC50 with Ubiquitin carboxyl-terminal hydrolase 7 (Homo sapiens, UniProt Q93009) for C[C@]1(CO)C[C@H](N2CCCc3cc(C#N)cc(-c4ccnc5cc(CN6C(=O)CCC6=O)sc45)c32)CN1 was < 10 nM

The value of IC50 recorded for Cc1cc(Cl)cc(-c2ncnc3cc(CN4C(=O)C5C(C4=O)C5(C)C)sc23)c1CC1(C)CNCCO1 (stereo not shown) when tested on Ubiquitin carboxyl-terminal hydrolase 7 (Homo sapiens, UniProt Q93009) reads 10 to 100 nM

# Cn1nc([C@H]2Cc3cc(Cl)cc(-c4ccnc5cc(Cl)ccc45)c3O2)c2c1CCNC2 with Ubiquitin carboxyl-terminal hydrolase 7 (Homo sapiens, UniProt Q93009): IC50 is 10000 to 30000 nM

The recorded IC50 with Ubiquitin carboxyl-terminal hydrolase 7 (Homo sapiens, UniProt Q93009) for CC1(C)C[C@H](N2CCCc3cc(C#N)cc(-c4ccnc5cc(CN6C(=O)CN(C7CC(F)(F)C7)C6=O)sc45)c32)CN1 was < 10 nM

IC50 for Ubiquitin carboxyl-terminal hydrolase 7 (Homo sapiens, UniProt Q93009) with input Cc1cnn(Cc2cc3nccc(-c4cc(C#N)cc5c4N([C@@H]4CN(C)C(C)(C)C4)CCC5)c3s2)c(=O)c1 equals < 10 nM

Param item: CC(=O)NCc1ccc2c(-c3cc(Cl)cc4c3O[C@@H](c3onc5c3CNCC5)C4)ccnc2c1 ; param system: Ubiquitin carboxyl-terminal hydrolase 7 (Homo sapiens, UniProt Q93009); output IC50: 1000 to 10000 nM

Field IC50 (system: Ubiquitin carboxyl-terminal hydrolase 7 (Homo sapiens, UniProt Q93009)) for entry CCC(O)c1cc2nccc(-c3cc(Cl)cc4c3O[C@@H](c3ocnc3CN3CCNCC3)C4)c2s1 (stereo partly shown) = < 1000 nM

Param item: O=c1c2ccc(Cl)cc2ncn1CC1(O)CCN(c2ccc([N+](=O)[O-])cn2)CC1 ; param system: Ubiquitin carboxyl-terminal hydrolase 7 (Homo sapiens, UniProt Q93009); output IC50: > 10000 nM

I looked up Fc1ccc2nccc(-c3cc(Cl)cc4c3O[C@@H](c3onc5c3CNCC5)C4)c2c1 and its IC50 for Ubiquitin carboxyl-terminal hydrolase 7 (Homo sapiens, UniProt Q93009) was < 1000 nM

Record Cc1cc(Cl)cc(-c2ncnc3cc(CN4C(=O)CC[C@@H]4CO)sc23)c1CC1CNCC(C)(C)O1 (stereo partly shown) / Ubiquitin carboxyl-terminal hydrolase 7 (Homo sapiens, UniProt Q93009), IC50 recorded as 10 to 100 nM

Tested system Ubiquitin carboxyl-terminal hydrolase 7 (Homo sapiens, UniProt Q93009); IC50 recorded for CC(C)(C)c1cnn(Cc2cc3nccc(-c4cc(C#N)cc5c4N([C@@H]4CN[C@@H](CO)C4)CCC5)c3s2)c(=O)c1 was < 10 nM

Record for CCc1cc2nccc(-c3cc(Cl)cc4c3O[C@@H](c3onc5c3CNCC5)C4)c2s1 under target or system Ubiquitin carboxyl-terminal hydrolase 7 (Homo sapiens, UniProt Q93009): IC50 reported as < 1000 nM

Hey, Ubiquitin carboxyl-terminal hydrolase 7 (Homo sapiens, UniProt Q93009) data for O=C(C1Cc2cc(Cl)cc(-c3ccnc4[nH]ccc34)c2O1)N1CCN(c2cccnc2)CC1 (stereo not shown) : IC50 came out at 1000 to 10000 nM

---

pIC50: −log10 of the molar value.
Here is a set of compounds with reported pIC50 for Ubiquitin carboxyl-terminal hydrolase 7 (Homo sapiens, UniProt Q93009), compiled from the literature.

Record OCc1ccc2c(-c3cc(Cl)cc4c3O[C@@H](c3onc5c3CNCC5)C4)ccnc2c1 , field pIC50: > 6.00

Per the record, N#CN1Cc2[nH]nc(-c3ccccc3)c2C1 has pIC50 of > 5.00

Looking up N#CN1Cc2cnn(-c3cc(C(N)=O)n[nH]3)c2C1 , I found its pIC50 recorded as 4.52 to 5.00

compound CC(C)C(CC(=O)N1CCC(O)(Cn2cnc3cc(NC(=O)CCN4CCN(C)CC4)ccc3c2=O)CC1)c1ccccc1 (centres unmarked) , pIC50 observed: 6.00 to 6.70

What the record says about Cc1cc(Cl)cc(-c2ccnc3cc(CN4C(=O)C5CC5C4=O)sc23)c1C[C@H]1O[C@H](C)CNC1=O (some centres unmarked) : pIC50 is < 7.00

Form field pIC50, entry CC(=O)NC(C)c1cc2nccc(-c3cc(Cl)cc4c3O[C@@H](c3onc5c3CNCC5)C4)c2s1 (some centres unmarked) : > 6.00

Reported pIC50 for O=C(NCCCC(=O)N1CCC(O)(Cn2cnc3cc(Cl)ccc3c2=O)CC1)c1ccc2c(Cl)c3c(nc2c1)CCCC3 was 5.00 to 6.00

Consider N#CN1Cc2cnn(-c3cccc(C(=O)NCc4ccccn4)c3)c2C1 . Its measured pIC50 is > 5.00

---

The following compounds were reported with pIC50 values on UniProt Q93009 in different studies.
pIC50: −log10 of the molar value.

Query Cc1cc(Cl)cc(-c2ncnc3cc(CN4C(=O)CC[C@@H]4C(F)F)sc23)c1CC1CNCC(C)(C)O1 (stereo partly shown) yields pIC50 of > 8.00

The reported value for OCCN1CCc2noc([C@H]3Cc4cc(Cl)cc(-c5ncnc6ccoc56)c4O3)c2C1 in terms of pIC50 is 5.00 to 6.00

// pIC50 value for Cc1cc(Cl)cc(-c2ncnc3cc(CN4C(=O)C5CC5C4=O)sc23)c1CN1CCN(C)C[C@@H]1C (stereo partly shown) : 7.00 to 8.00

The recorded pIC50 for entry CC(C)(C)c1cnn(Cc2cc3nccc(-c4cc(C#N)cc5c4N([C@@H]4CN[C@@](C)(CO)C4)C(=O)CO5)c3s2)c(=O)c1 equals > 8.00

So for O=c1ccn(CC(F)(F)F)c(=O)n1Cc1cc2ncnc(-c3cc(Cl)cc4c3N([C@@H]3CCNC3)CCC4)c2s1 (single isomer, unassigned) , the logged pIC50 turned out to be > 8.00

Record C[C@H]1CNCCN1Cc1ccc(F)cc1-c1ncnc2cc(CN3C(=O)C4CC4C3=O)sc12 (stereo partly shown) , field pIC50: < 7.00

For record ON=C1c2ccccc2-c2nn3nnnc3nc21 (mixture of isomers) the listed pIC50 is 6.18

---

pIC50: −log10 of the molar value.
// read-out pIC50, gathered for Ubiquitin carboxyl-terminal hydrolase 7 (Homo sapiens, UniProt Q93009) from published studies

Looking up OCC1(CO)Cc2nccc(-c3cc(Cl)cc4c3O[C@@H](c3onc5c3CNCC5)C4)c2C1 , I see its pIC50 listed as 5.00 to 6.00

Notebook: CCn1c(N(C)C)cc(=O)n(Cc2cc3nccc(-c4cc(C#N)cc5c4N([C@H]4CN[C@](C)(CO)C4)CCO5)c3s2)c1=O (stereo in doubt) , pIC50 read as > 8.00

Lab book: pIC50 of CN(C)S(=O)(=O)c1cccc(-c2n[nH]c3c2CN(C#N)C3)c1 noted as > 5.00

For this molecule ( O=C1CCC(=O)N1Cc1cc2nccc(-c3cc(Cl)cc4c3N([C@@H]3CCNC3)CCC4)c2s1 ), measured pIC50 is 7.00 to 8.00

The value of pIC50 measured for the molecule FC(F)(F)CNCc1cc2nccc(-c3cc(Cl)cc4c3O[C@@H](c3onc5c3CNCC5)C4)c2s1 turned out to be > 6.00

Item: O=C(C1Cc2cc(Cl)cc(-c3ccnc4cc[nH]c34)c2O1)N1CCNCC1 (centres unmarked) | pIC50: 5.00 to 6.00

// pIC50 lookup, molecule = COC(=O)[C@@]1(C)C[C@H](N2CCCc3cc(Cl)cc(-c4ccnc5cc(CN6C(=O)CCC6=O)sc45)c32)CN1 (single isomer, unassigned) , result: > 8.00

Noted for CC[C@H](O)c1cc2ncnc(-c3cc(Cl)cc4c3O[C@@H](c3onc5c3CNCC5)C4)c2s1 : its pIC50 reads > 6.00
